This collection of values is drawn from patent US5086054A.

System: PCP RECEPTOR
Test: PCP receptor binding assay ([3H]-TCP displacement, brain membranes)
Design: species or system guinea-pig (male Hartley)

| smilesCode | potency at PCP receptors (in words) |
| --- | --- |
| O=[N+]([O-])c1ccc(C2(CN3CCCC3)CCCCC2)cc1 | inactive at PCP sites |
| COc1ccc(C2(CN3CCCC3)CCCCC2)cc1 | inactive at PCP sites |

* * *

Biological target: SIGMA RECEPTOR (Cavia porcellus)
Construct: Two milliter aliquots of the brain membrane preparation, containing 1.7 mg of protein; tissue Pel-Freeze (Rogers, Arkansas); host or cells: guinea-pig brains plus cerebella, membranes
Sequence (Q60492 whole entry): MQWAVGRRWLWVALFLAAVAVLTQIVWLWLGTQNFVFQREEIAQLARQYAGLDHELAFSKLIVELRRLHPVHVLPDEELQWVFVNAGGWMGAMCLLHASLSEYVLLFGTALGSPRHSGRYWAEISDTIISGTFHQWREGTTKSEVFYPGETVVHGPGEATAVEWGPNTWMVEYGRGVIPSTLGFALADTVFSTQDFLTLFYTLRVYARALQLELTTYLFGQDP
Experiment: Sigma receptor binding assay ([3H]-d-SKF-10,047 displacement, brain membranes)
Design: species or system guinea-pig (male Hartley)
Conditions: Table 4; IC50 and nM only stated in text; read-out: SIGMA
Counter-ions that a name gives are not always drawn.
readout: IC50 (nM)
The reply should contain only the number, in nM.

Form field: reported IC50 of CCN(CC)CCOC(=O)C1(c2ccccc2)CCCCC1.Cl [Compound 15, hydrochloride] 30

Form field: reported IC50 of CN(C)CCOC(=O)C1(c2ccccc2)CCCCC1.Cl [Compound 19, hydrochloride] 9.2

Form field: reported IC50 of O=C(OCCN1CCCCC1)C1(c2ccccc2)CCCCC1 [Compound 3, hydrochloride] 26

Form field: reported IC50 of O=C(OCCN1CCCC1)C1(c2ccccc2)CCCCC1 [Compound 8, hydrochloride] 5.1
